recordedMetric: melting point (°C)

a = CCCCCS(=O)(=O)NC(=O)/C(=C/c1ccc(OCCOC)cc1Oc1ncc(Cl)cc1Cl)CC
b = CCCCCCCCCCCCn1c(=O)c(=O)[nH]c2c3ccccc3ccc21
Higher melting point: a or b ? Your answer should be the label attached to the chosen record.
b

---

The entries below come with measured melting point values attached.

Cc1c(-c2ccccc2)cccc1-c1ccc2ccccc2c1 | 106 to 107 °C
CC(O)(c1ccccc1)c1cc(Cl)ccc1O (stereo unspecified) | 106 °C
COCCNc1ccc(C2=NNC(=O)NC2C)cc1 (stereo unspecified) | 160 to 165 °C
Cc1c(Br)ccc(OC(=O)C(C)(C)C)c1C(=O)O | 144 to 145 °C
CCOC(=O)c1c(NC(C)=O)cccc1C(C)=O | 88 °C
CCOC(=O)c1c(C(C)C)csc1N | 61 to 61.5 °C

Give its melting point value. Item: `Oc1ccc(C2=CCN(CCCN3CCOCC3)CC2)cc1`
166 to 168 °C

Give its melting point value. Item: `Cc1cc(=O)n(C2CCCCC2)c(=O)n1C`
135 to 137 °C

Give its melting point value. Item: `O=C(NCc1ccccc1)OCCc1noc(-c2ccc(CN3CCCCCC3)s2)n1`
138 to 139 °C

Give its melting point value. Item: COC(=O)CN1C(=O)C(C(C)C)Sc2ccccc21 (stereo unspecified)
81 to 82 °C

Give its melting point value. Item: `CCOC(=O)Cc1c(-c2ccccc2)c2cc(C)c(C)cc2oc1=O`
127 to 128 °C
